The compounds below each have a reported IC50 tested on Tyrosine-protein kinase JAK1 (Homo sapiens); the values come from various publications.

>  <compound>
Cc1ccc(NC(=O)c2cc(C(F)(F)F)ccc2C(F)(F)F)cc1-c1ccc2[nH]c3ncncc3c2c1

>  <IC50>
≤ 500 nM

$$$$
>  <compound>
N#CCC1(n2cc(-c3nc(Nc4ccccc4)nc4ccsc34)cn2)COC1

>  <IC50>
50 to 500 nM

$$$$
>  <compound>
N#CCC1(n2cc(-c3ncnc4[nH]ccc34)cn2)CN(C2CCN(C(=O)c3cccc(C#N)c3)CC2)C1

>  <IC50>
5 to 20 nM

$$$$
>  <compound>
N#CCC1(n2cc(-c3nc(-c4cnn(C5COC5)c4)cc4nccn34)cn2)CN(CC(F)(F)C(F)(F)F)C1

>  <IC50>
100 to 1000 nM

$$$$
>  <compound>
N#CCC1(n2ccc(-c3ncnc4[nH]ccc34)c2)CN(C2CCN(C(=O)c3c(F)ccc(F)c3F)CC2)C1

>  <IC50>
≤ 5 nM

$$$$
>  <compound>
C#Cc1ccc(C(=O)N2CC3(CC(N(C)c4ncnc5[nH]ccc45)C3)C2)cc1F

>  <IC50>
≤ 10 nM

$$$$
>  <compound>
COc1cc(F)cc(F)c1COc1ccc2cc1COCC[C@@H](C)CNC(=O)c1ccc(c(N)c1)-c1ccnc(n1)N2

>  <IC50>
1000 to 10000 nM

$$$$
>  <compound>
CCc1cc(O)c(F)cc1-c1cc2[nH]nc(C(=O)NC)c2c(N[C@H](C)c2ccccc2N(C)S(C)(=O)=O)n1

>  <IC50>
4 nM

$$$$
>  <compound>
CC1CCNC(=O)c2ccc(c(N)c2)-c2ccnc(n2)Nc2ccc(OCC3COC3)c(c2)COC1 (stereo not shown)

>  <IC50>
1000 to 10000 nM

$$$$
>  <compound>
CNC(C)c1nc2cnc3ccsc3c2n1[C@H]1CC[C@H](CC#N)OC1 (stereo partly shown)

>  <IC50>
≤ 1000 nM

$$$$
>  <compound>
N#CCCN1[C@@H]2CC[C@H]1C[C@H](Nc1nc(Nc3cc(F)[nH]n3)cc3ncccc13)C2

>  <IC50>
30.6 nM

$$$$
>  <compound>
NC(=O)c1cnc2[nH]ccc2c1NN1CCC(C(=O)NCC(F)(F)F)C1 (stereo not shown)

>  <IC50>
0.66 nM

$$$$
>  <compound>
CCOC(=O)Cn1cc(Nc2ncc3ccn(C[C@@H]4CCC[C@@H](OC)C4)c3n2)cn1

>  <IC50>
100 to 1000 nM

$$$$
>  <compound>
CCS(=O)(=O)N1CC(CC#N)(n2cc(-c3nc(Nc4ccccc4)nc4ccsc34)cn2)C1

>  <IC50>
50 to 500 nM

$$$$
>  <compound>
C=CC(=O)N1Cc2c(-c3ccnc4[nH]ccc34)cnn2C[C@H]1C

>  <IC50>
> 10000 nM

$$$$
>  <compound>
N#CCC1(n2cc(-c3ncnc4[nH]ccc34)cn2)CN(C2CCN(C(=O)C3CCC(F)(F)CC3)CC2)C1

>  <IC50>
5 to 20 nM

$$$$

###

The compounds below each have a reported pIC50 tested on Tyrosine-protein kinase JAK1 (Homo sapiens); the values come from various publications.
pIC50: −log10 of the molar value.
measurement label: pIC50

>  <compound>
N#CCC(C1CC1)n1cc(-c2nc(-c3ccc(N4CC5CCC(C4)O5)cc3)cc3nccn23)cn1 (stereo not shown)

>  <measurement label>
pIC50

>  <value observed>
7.00 to 8.00

$$$$
>  <compound>
N#CCC1(n2cc(-c3ncnc4[nH]ccc34)cn2)CN(C2CCN(C(=O)OCC3CCC3)CC2)C1

>  <measurement label>
pIC50

>  <value observed>
≥ 8.30

$$$$
>  <compound>
CCOCCO[C@H]1CNc2cc(Nc3ncc(C(N)=O)c(NC4CC4)n3)ccc2OC1

>  <measurement label>
pIC50

>  <value observed>
> 8.00

$$$$
>  <compound>
COCCn1nc(C(=O)NCCC(F)(F)F)c2c1CCN(c1ncnc3[nH]ccc13)C2

>  <measurement label>
pIC50

>  <value observed>
6.30 to 7.00

$$$$
>  <compound>
CCCC(C1CC1)n1cc(-c2nc(-c3cnn(C)c3)cc3nccn23)cn1 (stereo not shown)

>  <measurement label>
pIC50

>  <value observed>
6.00 to 7.00

$$$$
>  <compound>
N#CCC1(n2cc(-c3ncnc4[nH]ccc34)cn2)CN(C2CCN(C(=O)c3c(F)cccc3F)CC2)C1

>  <measurement label>
pIC50

>  <value observed>
≥ 8.30

$$$$
>  <compound>
Cn1cc(Nc2nc(-c3cnn(C4(CC#N)CC(F)C4)c3)c3sccc3n2)cn1 (stereo not shown)

>  <measurement label>
pIC50

>  <value observed>
6.30 to 7.30

$$$$
>  <compound>
CCS(=O)(=O)N1CC(CC#N)(n2cc(-c3nc(Nc4cnn(C5CNC5)c4)nc4ccsc34)cn2)C1

>  <measurement label>
pIC50

>  <value observed>
> 7.30

$$$$
>  <compound>
Cc1ccc(NC(=O)c2ccc(F)c(C(F)(F)F)c2)cc1-c1ccc2[nH]c3ncncc3c2c1

>  <measurement label>
pIC50

>  <value observed>
≥ 6.30

$$$$
>  <compound>
Cc1ccc(C(=O)Nc2cccc3c2ccn3-c2ccnc(NC(=O)C3CC3)c2)cn1

>  <measurement label>
pIC50

>  <value observed>
< 6.00

$$$$
>  <compound>
COCCS(=O)(=O)N1[C@@H]2CC[C@H]1C[C@H](Nc1nc(Nc3cc(C)[nH]n3)c3ccccc3n1)C2

>  <measurement label>
pIC50

>  <value observed>
8.45

$$$$
>  <compound>
CC(=O)N1CCC(CC#N)(n2cc(-c3nc(-c4cnn(C)c4)cc4nccn34)cn2)C1 (stereo not shown)

>  <measurement label>
pIC50

>  <value observed>
< 6.00

$$$$
>  <compound>
Cn1cc(-c2cc3nccn3c(-c3cnn(C(CC#N)C4CC4)c3)n2)cn1 (stereo not shown)

>  <measurement label>
pIC50

>  <value observed>
6.00 to 7.00

$$$$
>  <compound>
N#CCC1(n2cc(-c3ncnc4[nH]ccc34)cn2)CN(C2CCN(Cc3cccc(Oc4ccccc4)c3)CC2)C1

>  <measurement label>
pIC50

>  <value observed>
7.52 to 7.70

$$$$
>  <compound>
CCOC(=O)Cn1cc(Nc2ncc3ccn(CC=C(C)C)c3n2)cn1

>  <measurement label>
pIC50

>  <value observed>
6.00 to 7.00

$$$$
>  <compound>
CNC(=O)c1n[nH]c2cc(-c3cc(F)c(O)cc3CC(F)(F)F)nc(NCc3cc(C)cnc3N(C)S(C)(=O)=O)c12

>  <measurement label>
pIC50

>  <value observed>
7.79

$$$$

###

The compounds below each have a reported pIC50 tested on Tyrosine-protein kinase JAK1 (Homo sapiens, UniProt P23458); the values come from various publications.
pIC50: −log10 of the molar value.

>  <compound>
O=C(NCCC(F)(F)F)c1nn(C2CCNCC2)c2c1CN(c1ncnc3[nH]ccc13)CC2

>  <pIC50>
< 5.70

$$$$
>  <compound>
O=C1NCCCCOCc2cc(ccc2N2CCOCC2)Nc2ncc(Cl)c(n2)-c2ccc1cc2Cl

>  <pIC50>
5.00 to 6.00

$$$$
>  <compound>
CC(C)Oc1ccc2cc1COCCCCNC(=O)c1ccc(c([N+](=O)[O-])c1)-c1ccnc(n1)N2

>  <pIC50>
5.00 to 6.00

$$$$
>  <compound>
CN1CCC(Cc2ccc(Nc3ncc4c(n3)N(c3cccc(S(=O)(=O)NC(C)(C)C)c3)CC4)cc2)CC1

>  <pIC50>
6.99

$$$$
>  <compound>
N#CCC1(n2cc(-c3ncnc4[nH]ccc34)cn2)CN(C2CCN(Cc3cc4ccccc4nc3Cl)CC2)C1

>  <pIC50>
7.70 to 8.30

$$$$
>  <compound>
CCOC(=O)Cn1cc(Nc2ncc3ccn(Cc4csc(C)n4)c3n2)cn1

>  <pIC50>
6.00 to 7.00

$$$$
>  <compound>
CC(C)(C)NS(=O)(=O)c1cccc(N2CCc3cnc(Nc4ccc(OCCN5CCSCC5)cc4)nc32)c1

>  <pIC50>
6.99

$$$$
>  <compound>
O=C1NCCCCOCc2cc(ccc2OCC2CCOC2)Nc2nccc(n2)-c2ccc1cc2[N+](=O)[O-] (stereo not shown)

>  <pIC50>
5.00 to 6.00

$$$$
>  <compound>
Cc1cc(Nc2ncc(C)c(N3CC(CC#N)(N4CCC(F)CC4)C3)n2)sn1

>  <pIC50>
> 8.00

$$$$
>  <compound>
CCOC(=O)c1cnc2[nH]ccc2c1N[C@@H]1CC[C@H](C)N(C(=O)CC#N)C1

>  <pIC50>
≥ 8.00

$$$$
>  <compound>
CC1CCNC(=O)c2ccc(c([N+](=O)[O-])c2)-c2ccnc(n2)Nc2ccc(Oc3cccnc3)c(c2)COC1 (stereo not shown)

>  <pIC50>
5.00 to 6.00

$$$$
>  <compound>
N#CCC1(n2cc(-c3ncnc4[nH]ccc34)cn2)CN(c2cc(F)c(C(=O)NCC(F)F)cc2F)C1

>  <pIC50>
> 8.00

$$$$
>  <compound>
Cc1ncc(-c2cc3nccn3c(-c3cnn(C(CC#N)C4CC4)c3)n2)s1 (stereo not shown)

>  <pIC50>
6.00 to 7.00

$$$$
>  <compound>
CC(O)c1cnc2cc(Nc3ncc(Cl)c(NC4CCN(c5ccc(C#N)cn5)CC4)n3)ccn12 (stereo not shown)

>  <pIC50>
> 9.52

$$$$
>  <compound>
N#CCC1(n2cc(-c3ncnc4[nH]ccc34)cn2)CN(C2CCN(Cc3c(F)cccc3Cl)CC2)C1

>  <pIC50>
≥ 8.30

$$$$
>  <compound>
Cn1cc(Nc2ncc(Cl)c(N[C@@H]3COC4C3OC[C@@H]4NS(=O)(=O)CC(F)(F)F)n2)cn1 (stereo partly shown)

>  <pIC50>
8.15

$$$$
